Target: Neuronal acetylcholine receptor subunit alpha-7 (Homo sapiens)
Sequence (P36544 whole entry): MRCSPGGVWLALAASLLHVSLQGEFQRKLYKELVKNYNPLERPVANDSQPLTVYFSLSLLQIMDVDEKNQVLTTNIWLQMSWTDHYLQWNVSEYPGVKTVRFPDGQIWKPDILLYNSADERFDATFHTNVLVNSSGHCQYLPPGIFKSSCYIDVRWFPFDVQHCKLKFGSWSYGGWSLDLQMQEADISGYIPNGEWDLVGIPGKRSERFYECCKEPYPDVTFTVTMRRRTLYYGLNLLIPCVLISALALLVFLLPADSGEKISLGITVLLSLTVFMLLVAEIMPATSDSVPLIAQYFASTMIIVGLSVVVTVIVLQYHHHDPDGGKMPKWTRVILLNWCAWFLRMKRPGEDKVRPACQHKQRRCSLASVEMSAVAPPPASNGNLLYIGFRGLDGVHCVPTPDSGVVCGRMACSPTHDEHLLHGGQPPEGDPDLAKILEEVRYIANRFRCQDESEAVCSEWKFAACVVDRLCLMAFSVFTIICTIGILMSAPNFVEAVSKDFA
Assay: Blockage of Nicotinic acetylcholine receptor alpha-7 noncompetitively in hippocampal primary cultures
Format: tissue-based, Hippocampus
Reported Metric: IC50 (µM)
Quick reminder: number only, in µM, skip the unit.

[ask] Would you kindly share the measured IC50 for O=C1CC[C@@]2(O)[C@H]3Cc4ccc(O)c5c4[C@@]2(CCN3CC2CC2)[C@H]1O5 [NALTREXONE] ?
[reply] 25
